Reference source: paper PMC12177071

- TARGET OR TEST SYSTEM: T1, CgPho4 DBD (Candida glabrata, UniProt Q6FVW0 452-533)
- T1 sequence: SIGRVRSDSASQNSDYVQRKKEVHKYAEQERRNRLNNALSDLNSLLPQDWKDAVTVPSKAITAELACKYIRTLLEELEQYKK
- PROCEDURE DETAILS: BLI; mean of 5 replicates; 30 C; BLI: 1x PBS pH 7.4, 0.01% BSA, 0.002% Tween-20, 0.005% sodium azide, 30 C; EMSA: 20 mM Tris-HCl pH 8, 150 mM KCl, 10% glycerol, 5 mM MgCl2, 1 mM EDTA, 1 mM DTT, 4 C
- MEASUREMENT SETUP: protein: recombinant; tags: C-terminal 6xHis; chain copies: 2; blunt
METRIC NAME: pKd
Give bare numbers, as −log10 of the molar value.

**Query** Please supply the value of reported pKd for the item 17-bp consensus E-box, BLI probe (dsDNA) DNA 1: CTAGTCCCACGTGTGAG DNA 2: CTCACACGTGGGACTAG
**Result** 8.92
